molecular target: human NaV subtype, like NaV 1.7 (Homo sapiens, UniProt Q15858); experiment: E-VIPR optical membrane potential assay with electrical stimulation; conditions: active against one or more sodium channels; Table 3 does not name the assay or NaV subtype; read-out: Binned Activity Data (IC50)
Sequence (Q15858 whole entry): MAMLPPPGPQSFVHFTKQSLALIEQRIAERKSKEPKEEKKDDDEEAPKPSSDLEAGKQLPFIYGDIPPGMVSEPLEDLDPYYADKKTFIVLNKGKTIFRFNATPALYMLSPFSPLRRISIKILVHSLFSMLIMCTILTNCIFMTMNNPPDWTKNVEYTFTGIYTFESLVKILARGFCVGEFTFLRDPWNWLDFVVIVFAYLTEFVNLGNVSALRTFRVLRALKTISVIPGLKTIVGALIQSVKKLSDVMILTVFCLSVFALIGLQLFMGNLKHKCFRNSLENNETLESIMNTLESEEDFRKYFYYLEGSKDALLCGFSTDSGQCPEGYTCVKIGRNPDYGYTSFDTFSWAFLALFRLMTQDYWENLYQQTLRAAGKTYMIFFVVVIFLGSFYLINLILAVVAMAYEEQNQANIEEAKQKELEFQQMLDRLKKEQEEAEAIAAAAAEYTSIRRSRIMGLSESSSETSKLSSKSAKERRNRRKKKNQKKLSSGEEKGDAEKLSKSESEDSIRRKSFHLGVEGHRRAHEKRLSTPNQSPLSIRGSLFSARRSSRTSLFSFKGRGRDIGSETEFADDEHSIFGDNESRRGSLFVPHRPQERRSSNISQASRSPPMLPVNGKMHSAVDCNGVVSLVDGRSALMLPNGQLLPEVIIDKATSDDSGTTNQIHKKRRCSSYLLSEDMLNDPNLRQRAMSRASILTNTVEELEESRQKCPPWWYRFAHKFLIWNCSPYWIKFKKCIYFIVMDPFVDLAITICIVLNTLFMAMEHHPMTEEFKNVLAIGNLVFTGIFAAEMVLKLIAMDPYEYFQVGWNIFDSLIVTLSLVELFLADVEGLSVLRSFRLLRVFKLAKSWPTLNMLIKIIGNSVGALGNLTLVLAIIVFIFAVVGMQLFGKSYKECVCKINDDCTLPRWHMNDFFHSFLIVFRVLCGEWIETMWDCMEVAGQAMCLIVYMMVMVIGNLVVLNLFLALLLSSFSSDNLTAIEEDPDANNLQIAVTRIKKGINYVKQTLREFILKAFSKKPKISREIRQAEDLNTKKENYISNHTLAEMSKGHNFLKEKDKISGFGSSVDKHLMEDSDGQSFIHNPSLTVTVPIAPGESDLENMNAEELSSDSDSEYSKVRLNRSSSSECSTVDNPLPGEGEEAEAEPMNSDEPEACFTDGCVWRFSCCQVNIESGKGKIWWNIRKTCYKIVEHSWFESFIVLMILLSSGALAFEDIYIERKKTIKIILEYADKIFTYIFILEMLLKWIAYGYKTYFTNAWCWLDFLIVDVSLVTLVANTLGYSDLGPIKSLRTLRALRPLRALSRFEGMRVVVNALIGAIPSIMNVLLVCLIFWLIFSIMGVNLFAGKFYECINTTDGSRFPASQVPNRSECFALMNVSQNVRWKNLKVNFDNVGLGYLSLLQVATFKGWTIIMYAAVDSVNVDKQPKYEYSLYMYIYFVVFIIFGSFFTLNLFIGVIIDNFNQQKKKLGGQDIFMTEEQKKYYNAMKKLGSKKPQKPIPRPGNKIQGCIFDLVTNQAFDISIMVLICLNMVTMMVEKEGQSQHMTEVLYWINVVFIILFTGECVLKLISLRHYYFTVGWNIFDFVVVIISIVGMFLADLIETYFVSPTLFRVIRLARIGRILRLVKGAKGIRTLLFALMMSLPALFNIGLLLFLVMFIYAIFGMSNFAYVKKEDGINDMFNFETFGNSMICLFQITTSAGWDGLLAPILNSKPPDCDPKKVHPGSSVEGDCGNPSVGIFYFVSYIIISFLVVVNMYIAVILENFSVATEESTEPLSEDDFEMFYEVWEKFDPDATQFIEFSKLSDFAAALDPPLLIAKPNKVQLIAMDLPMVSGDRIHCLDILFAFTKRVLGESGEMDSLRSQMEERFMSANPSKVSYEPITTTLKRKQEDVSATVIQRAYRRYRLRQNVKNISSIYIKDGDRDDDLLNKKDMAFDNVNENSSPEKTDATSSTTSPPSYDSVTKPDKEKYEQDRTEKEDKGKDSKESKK
pIC50: −log10 of the molar value.
property: pIC50

The following compounds have reported results that may help.
CCCCOc1ccc(C(=O)N2CCC3(CC2)c2ccc(C(F)(F)F)n2CCN3C)cc1OC	≥ 5.70
CNS(=O)(=O)c1ccc(C(=O)N2CCC3(CC2)NCCn2c(C(F)(F)F)ccc23)cc1C	5.30 to 5.70
CN1CCn2c(C(F)(F)F)cc(Cl)c2C12CCN(C(=O)c1ccc(C(C)(C)O)cc1)CC2	5.30 to 5.70
CCCOc1ccc(C(=O)N2CCC3(CC2)c2ccc(C(=O)C(F)(F)F)n2CCN3C)cc1OC	≥ 5.70

Could you now consider this next compound?
Enquiry: Lab note: need pIC50 with human NaV subtype, like NaV 1.7 (Homo sapiens, UniProt Q15858) for entry `COc1cc(C(=O)N2CCC3(CC2)c2ccc(C(C)=O)n2CCN3C)ccc1COCCC(F)(F)F` , please look it up.
Return: ≥ 5.70
